Molecular target: T1, HA-GCN4 hAPRIL (amino acid residues 105-250) (human, UniProt O75888 105-250)
T1 construct: Bought (R&D Systems); also called HA-tagged GCN4 human APRIL; HA-GCN4-huAPRIL; not shown: N-terminal HA tag; GCN4 isoleucine zipper oligomerization domain
T1 sequence: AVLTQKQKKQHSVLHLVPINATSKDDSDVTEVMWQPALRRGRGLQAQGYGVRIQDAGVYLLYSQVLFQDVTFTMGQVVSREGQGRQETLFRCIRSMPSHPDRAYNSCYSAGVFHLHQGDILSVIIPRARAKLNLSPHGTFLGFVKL
Test: blocking ELISA; blocked: human APRIL binding to human TACI-Fc
Parameters: concentration or dose not given beside the values
Here, each record is paired with measured % Inhibition data.
Answers without a unit are incomplete; give the number and then its unit.

Memo: monoclonal antibody 3530 (antibody, mouse IgG2, V domains shown) VH: QVQLQQSGAELVRPGASVKLSCKASGYTFTDHEMHWVRQTPVHGLEWIGVIDPDTGDTTYNQKFKGKATLTADKSSSTAYMDLRSLTSEDSAVFYCTRWTGGDYWGHGTTLTVSS VL: DAVMTQTPLSLSVTIGQPASISCKSSQSLLYSDGKTYLNWFQQRPGQSPKRLMYQVSKLDPGIPDRFSGSGSETDFTLKISRVEAEDLGVYYCLQGTYYPYTFGSGTKLEIK , reported % Inhibition: 81%

// % Inhibition lookup, binder = monoclonal antibody 3525 (antibody, mouse IgG2, V domains shown) VH: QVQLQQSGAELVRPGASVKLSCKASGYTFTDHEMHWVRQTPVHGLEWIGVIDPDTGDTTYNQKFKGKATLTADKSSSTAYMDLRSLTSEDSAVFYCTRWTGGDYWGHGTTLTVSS VL: DVVMTQTPLSLSVTIGQPASISCKSSQSLLYSNGKTYLNWFQQRPGQSPKRLMYQVSKLDPGIPDRFSGSGSETDFTLKISRVEAEDLGLYYCLQGTYYPYTFGGGTKLEIK , result: 86%

Measured % Inhibition of monoclonal antibody 2218 (antibody, mouse IgG2, V domains shown) VH: DVQLQESGPGLVKPSQSLSLTCSVTGYSITSGYYWNWIRQFPGNKLEWMGYISYDGYNNYNPSLKNRISITRDTSKNQFFLKLNSVTTEDTATYYCANYYDYEDWYFGVWGTGTTVTVSS VL: DIVLTQSPASLAMSLGKRATISCRASESVSIIGTNSIHWYQQKPGQPPKLLIYHASNLETGVPARFSGSGSRTDFTLTIDPVEEDDVAIYYCLQSRKIPYTFGGGTKLEIK : 91%
